Target: PKM2 (Homo sapiens, UniProt P14618)
Sequence (P14618 whole entry): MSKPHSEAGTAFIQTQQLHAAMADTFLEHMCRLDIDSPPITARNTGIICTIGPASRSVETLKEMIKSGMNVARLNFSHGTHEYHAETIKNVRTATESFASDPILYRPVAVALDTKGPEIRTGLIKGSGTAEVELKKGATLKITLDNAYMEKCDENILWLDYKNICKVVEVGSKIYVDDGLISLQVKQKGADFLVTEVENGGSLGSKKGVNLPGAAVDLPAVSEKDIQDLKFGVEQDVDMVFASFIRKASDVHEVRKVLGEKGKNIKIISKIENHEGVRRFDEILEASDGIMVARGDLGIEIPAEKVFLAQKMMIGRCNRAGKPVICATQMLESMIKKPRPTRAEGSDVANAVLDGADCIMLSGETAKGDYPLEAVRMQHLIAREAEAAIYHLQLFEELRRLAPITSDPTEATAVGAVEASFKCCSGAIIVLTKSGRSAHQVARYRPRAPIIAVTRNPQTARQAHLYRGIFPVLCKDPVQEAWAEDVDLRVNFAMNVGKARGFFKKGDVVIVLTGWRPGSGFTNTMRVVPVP
Assay: PKM2 Assay (activation, LDH-coupled NADH absorbance at 340 nm)
Assay type: biochemical
Settings: activation of PKM2; PKM2 50 ng/well, ADP 0.7 mM, PEP 0.15 mM, room temperature (25° C.); read-out: AC50

smiles_record	AC50
CN(Cc1ccccc1)C1CN(C(=O)c2ccc(NS(=O)(=O)c3cccc4cccnc34)cc2)C1	0.1 to 1 µM
CC(C)NC(=O)NC1CN(C(=O)c2ccc(NS(=O)(=O)c3cccc4cccnc34)cc2)C1	1 to 10 µM
COc1cc(NS(=O)(=O)c2cccc3cccnc23)ccc1C(=O)N1CC(O)C1	> 10 µM
C=CCNC(=O)NC1CN(C(=O)c2ccc(NS(=O)(=O)c3cccc4cccnc34)cc2)C1	1 to 10 µM
COc1ccccc1OC1CN(C(=O)c2ccc(NS(=O)(=O)c3cccc4cccnc34)cc2OC)C1	< 0.1 µM
Cc1cc(C(=O)N2CC(OC(=O)Nc3ccccn3)C2)ccc1NS(=O)(=O)c1cccc2cccnc12	0.1 to 1 µM
O=C(c1ccc(NS(=O)(=O)c2cccc3cccnc23)c(F)c1)N1CC(Oc2ccccc2)C1	0.1 to 1 µM
Cc1cc(C(=O)N2CC(OC(=O)NC(C)C)C2)ccc1NS(=O)(=O)c1cccc2cccnc12	0.1 to 1 µM
